# System: M14 melanoma
# ASSAY_OVERVIEW: NCI tumour cell line growth inhibition, 48 h
MEASUREMENT_NAME: TGI (µM)
Hi! Could you send only the number? It should be in µM, unit omitted.

Check out these entries, answers already filled in.
>>> reading("CCN(CC)CC(O)COc1c(Br)c(Br)c(Br)c2c1OC(C)(C)C2 (stereo not drawn)")
4.12
>>> reading("Cc1cc(C(O)(c2ccc(Nc3ccccc3)cc2)c2ccc(Nc3ccc(S(=O)(=O)O)cc3)cc2)ccc1N (stereo not drawn)")
2.98

Please give the measured TGI for this compound: C#C[C@]1(O)[C@@H](CO)O[C@@H](n2ccc(N)nc2=O)[C@@H]1O
3.06

Do the same for C/C(=N\O)c1cccc(Nc2cc(-c3ccccc3)nc3c(O)cccc23)c1 please
18.8

Do the same for Fc1ccc(C2SCc3nc4ccccc4n32)cc1F (stereo not drawn) please
76.7

Do the same for NCCCNc1nc2ccc(Cl)cc2c2c(=O)c3cc(F)ccc3sc12 please
14.2

Do the same for CCCCCCCC(CC(=O)NC(CO)C(=O)NC(CO)CC(C)C)OC(=O)CC(CCCCCCC)OC(=O)CC(CCCCCCC)OC1OC(C)C(O)C(OC2OC(C)C(O)C(O)C2O)C1O (stereo not drawn) please
17.5

Do the same for CCCOc1ccc(/C=N/Nc2cc(C)nc3ccc(Cl)cc23)cc1 please
3.23

Do the same for CC[C@@H]1CC[C@@H]2[C@H](CC[C@]3(C)[C@@H](OC(C)=O)CC[C@@H]23)[C@H]1C(=O)OC please
42.3

Do the same for CCCNCC(O)CNc1ccc(NCC(O)CNCCC)c2c1C(=O)c1ccccc1C2=O (stereo not drawn) please
11

Do the same for C=CC(OC(=O)C(C)C)c1ccc(OC(=O)C(C)C)cc1 (stereo not drawn) please
21.4

###

# System: SF-268 CNS
# ASSAY_OVERVIEW: NCI tumour cell line growth inhibition, 48 h
MEASUREMENT_NAME: GI50

>>> reading("Oc1ccc(Cc2ccc(O)c(C3CC(c4ccc(Cl)cc4)=NN3)c2)cc1C1CC(c2ccc(Cl)cc2)=NN1 (stereo not given)")
"3.32 µM"
>>> reading("O=c1[nH]c(F)nc2c1ncn2C1OC(CO)C(O)C1O (stereo not given)")
"> 100 µM"

Please give the measured GI50 for this compound: CCCOc1ccc(/C=N/Nc2cc(C)nc3ccc(Cl)cc23)cc1
2.24 µM

Do the same for FC(F)(F)c1ccc(-c2ncc(-c3ccc(C(F)(F)F)cc3)c(NCc3cc(C(F)(F)F)cc(C(F)(F)F)c3)n2)cc1 please
3.98 µM

Do the same for C=C(CN1CCN(c2ccccc2C(F)(F)F)CC1)c1ccc(C(=O)Nc2ccccc2N)cc1 please
4.55 µM

###

# Tested on: 786-0 renal
# ASSAY_OVERVIEW: NCI tumour cell line growth inhibition, 48 h; in the data active = GI50 below about 0.43 µM; inactive = the rest
A correct response names exactly one class from label 1 = active, label 0 = inactive

Take a look at these entries with their results.
>>> discrete_label("O=C1NC(=O)C(c2ccccc2)=C1Nc1ccccc1")
"label 0"
>>> discrete_label("CC(=O)OCC1OC([Se-])C(OC(C)=O)C(OC(C)=O)C1OC(C)=O.N#CCC[PH+](CCC#N)CCC#N.[Au+] (stereo not given)")
"label 0"
>>> discrete_label("O=C(Nc1ccc(I)cc1)c1cccc([N+](=O)[O-])c1O")
"label 0"
>>> discrete_label("CCCCCCc1cc2cc(-c3csc(/C=C/c4ccccc4)n3)c(=O)oc2cc1O")
"label 0"
>>> discrete_label("COc1cc(/C=C/C(=O)c2c(C)nc3ccccc3c2C)ccc1OCCCCOc1cc2c(cc1OC)C(=O)N1CCC[C@H]1C=N2")
"label 0"

How did this test come out for O=C1/C(=C\c2ccccc2)CN(C(=O)c2ccccc2)C/C1=C\c1ccccc1 ?
label 0

Do the same for CCN1C(=O)N(CC)C2C1NC(=S)N2/N=C/C=C/c1ccccc1OC (stereo not given) please
label 1

Do the same for O=Cc1ccc(-c2ccc(-c3ccc(C=O)o3)[se]2)o1 please
label 0

Do the same for O=C1c2cccnc2C(=O)c2c1c(C(=O)OCCc1ccccn1)c1ccccn21 please
label 1

Do the same for N#Cc1c2ccccc2c2nnc3ccc(C(F)(F)F)cc3n12 please
label 0
